# System: HT-1080 cells
# test: HT-1080 cell viability assay (ferroptosis induced by RSL3, Cell Titer-Glo)
# Format: cell-based
# assay context: Homo sapiens, HT-1080, 20 h, ferroptosis inducer RSL3, 20 hours, ferroptosis inhibitory activity, Table 2
experimental endpoint: EC50

# count of solved cases: 2
>>> measured_value("CC[C@@H]1CN(c2ccc(NC3CCC(N)CC3)c(C)n2)C[C@H](C)O1 (stereo partly drawn) [Compound 551]")
"100 to 1000 nM"
>>> measured_value("CC1(C)CCC(c2ccc(NC3CCC(CNC(=O)[C@@H]4CNC(=O)N4)CC3)cc2)CC1 (single isomer, unassigned) [Compound 107A]")
"0.1 to 100 nM"

Exercise: For the compound shown here, CC(C)C1CCN(c2ncc(NC3CCNC3)cn2)CC1 (stereo not drawn) [Compound 36] , give the reported EC50.
Solution: 0.1 to 100 nM

Exercise: For the compound shown here, CC(C)C1CCN(c2ncc(NC34CC(N)(C3)C4)cn2)CC1 [Compound 434] , give the reported EC50.
Solution: 1000 to 10000 nM

Exercise: For the compound shown here, NCC1CCC(Nc2ccc(C(F)(F)F)cc2)CC1 (stereo not drawn) [Compound 88] , give the reported EC50.
Solution: 1000 to 10000 nM

Exercise: For the compound shown here, CC(C)C1CCN(c2ncc(NCC[C@H]3CC[C@H](NC(N)=O)CC3)cn2)CC1 [Compound 429] , give the reported EC50.
Solution: 0.1 to 100 nM

###

Let's look at some molecules and their measured EC50.
# System: HT-1080 cells
# test: HT-1080 cell viability assay (ferroptosis induced by RSL3, Cell Titer-Glo)
# Assay type: cell-based
# assay context: Homo sapiens, HT-1080, 20 h, ferroptosis inducer RSL3, 20 hours, ferroptosis inhibitory activity, Table 2

# count of solved cases: 3
>>> measured_value("COCC1CCC(Nc2ccc(C3CCC(C)(C)CC3)cc2)CC1 (stereo not drawn)")
"100 to 1000 nM"
>>> measured_value("CCCc1ccc(NC[C@H]2CC[C@H](N)CC2)cc1")
"0.1 to 100 nM"
>>> measured_value("CC(C)(C)c1ccc(NC2CCC(N)CC2)c(Cl)c1 (single isomer, unassigned) [Compound 183A]")
"1000 to 10000 nM"

Exercise: Give recorded EC50 with HT-1080 cells for the following molecule: NCC1CCC(Nc2ccc(C3CCCCC3)cc2)CC1 (single isomer, unassigned) [Compound 82A]
Solution: 0.1 to 100 nM

###

# Tested on: HT-1080 cells
# test: HT-1080 cell viability assay (ferroptosis induced by RSL3, Cell Titer-Glo)
# Assay type: cell-based
# assay context: Homo sapiens, HT-1080, 20 h, ferroptosis inducer RSL3, 20 hours, ferroptosis inhibitory activity, Table 2
experimental endpoint: EC50

# count of solved cases: 8
>>> measured_value("CC1(C)CCc2cc(NC3CCC(N)CC3)ccc21 (centres unmarked) [Compound 330A]")
"0.1 to 100 nM"
>>> measured_value("CC(C)(C)c1ccc(NCCOCCO)cc1")
"1000 to 10000 nM"
>>> measured_value("CC1(C)CCC(c2ccc(NC3CCNCC3)cc2)CC1")
"0.1 to 100 nM"
>>> measured_value("NC1CCC(Nc2ccc3nc(N4CCC(C(F)(F)F)CC4)cnc3c2)CC1 (centres unmarked)")
"0.1 to 100 nM"
>>> measured_value("Cc1cc(N2CC(C)OC(C)C2)ccc1NC1CC2(CC(N)C2)C1 (centres unmarked)")
"0.1 to 100 nM"
>>> measured_value("CC(Nc1ccc(C(C)(C)C)cc1)[C@H]1CC[C@H](N)CC1 (some centres unmarked)")
"0.1 to 100 nM"
>>> measured_value("Cc1nc(N2CC(C)OC(C)C2)ccc1NCCC1CCC(N)C1 (centres unmarked)")
"0.1 to 100 nM"
>>> measured_value("CC1(C)CCC(c2ccc(NC3CCN(C(=O)[C@H]4CNC(=O)N4)CC3)cc2)CC1")
"100 to 1000 nM"

Exercise: For the molecule shown here, O=C(NO)C1CC2(CC(Nc3cnc(N4CCC(C(F)(F)F)CC4)nc3)C2)C1 (centres unmarked) , give the reported EC50.
Solution: 0.1 to 100 nM

Exercise: For the molecule shown here, Cc1cc(N2CC(C)OC(C)C2)c(F)cc1NC[C@H]1CC[C@H](N)CC1 (some centres unmarked) , give the reported EC50.
Solution: 0.1 to 100 nM

Exercise: For the molecule shown here, CC(C)(C)c1ccc(NC2CCC(CN)C2)cc1 (centres unmarked) , give the reported EC50.
Solution: 0.1 to 100 nM

Exercise: For the molecule shown here, NC1CC2(C1)CC(Nc1ccc(N3CCC(C(F)(F)F)CC3)cc1)C2 (centres unmarked) , give the reported EC50.
Solution: 0.1 to 100 nM

Exercise: For the molecule shown here, CC1(C)CCC(c2ccc(NC3CC(O)C3)cc2)CC1 (single isomer, unassigned) [Compound 228A] , give the reported EC50.
Solution: 0.1 to 100 nM

Exercise: For the molecule shown here, CCc1nc(N2C[C@@H](C)O[C@@H](C)C2)ccc1NC1CC2(CC(N)C2)C1 (some centres unmarked) , give the reported EC50.
Solution: 0.1 to 100 nM

Exercise: For the molecule shown here, CCCNc1ccc(N2CCC(C(F)(F)F)CC2)cc1 , give the reported EC50.
Solution: 0.1 to 100 nM
